Protocol text: RAM signaling pathway blockade in yeast – S. cerevisiae, Pdr1DBD-CYC8 efflux-inhibited sensitized strain, primary screen (AID 1298);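 further: 0% = DMSO untreated cells without growth and 100% = 10 µM 1-NA-PP1 full growth; higher means more yeast growth rescued from 5-FOA killing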
Test context: S. cerevisiae cbk1-as DSE1-URA3 strain, 5-FOA growth OD615, 2 d; at 50 µM; stronger effect = higher value
Metric: RAM network inhibition (%)
# unit: % | format: bare number

[
  {
    "Compound": "Cc1onc(-c2ccccc2)c1C(=O)N1CCN(C/C=C/c2ccccc2)CC1",
    "RAM network inhibition, %": 3.92
  }
]

Below: the item to evaluate.
-- ask Entry `Cc1sc2ncnc(SCC(=O)c3cccs3)c2c1C` has what RAM network inhibition?
-- reply 3.92

* * *

Protocol text: growth suppression of PTEN-deleted HCT116, pilot screen, cell-based, HCT116 clonal line, CellTiter-Glo (AID 824);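 further: 0% = 20 µM Hyamine control and 100% = vehicle cell control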
Test context: 60 h, at 10 µM
Records with an inconclusive call do not appear. Activity calls are given as the source filed them.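 Rule for the calls: active = viability at or below 27.92% in each of two runs, the all-compound median minus 4 SD; inconclusive = no clear call, values can overlap the other calls; inactive = the rest.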
One label from this list, please: label 1 = active, label 0 = inactive

Completed entries (count: 4):
[
  {
    "Compound": "O=C(NC1CCS(=O)(=O)C1)c1ccccc1C(=O)c1ccccc1 (centres undefined)",
    "Category label": "label 0"
  },
  {
    "Compound": "O=C(CN1CCCCC1)Nc1ccc(F)c(Cl)c1",
    "Category label": "label 0"
  },
  {
    "Compound": "COc1ccc(C)cc1NC(=O)CSc1nnc(-c2ccc(OC)c(OC)c2)n1N",
    "Category label": "label 0"
  },
  {
    "Compound": "CCOc1ccc(C2C(C(=O)Nc3ccc(F)cc3)=C(C)Nc3nc(CCCO)nn32)cc1 (centres undefined)",
    "Category label": "label 0"
  }
]

-- ask State the result this test recorded for `CSc1nc(-c2ccccc2)nc2[nH]ccc(=O)c12` .
-- reply label 0

-- ask State the result this test recorded for `CCOc1nonc1C(=N)/C(C(C)=O)=C(\C)O` .
-- reply label 0

-- ask State the result this test recorded for CCOC(=O)C(C(=O)Nc1cccc(C)n1)C1CCCCC1 (centres undefined) .
-- reply label 0

-- ask State the result this test recorded for `COC(=O)c1ccc(NC(=O)c2cnc3scc(C)n3c2=O)cc1` .
-- reply label 0

-- ask State the result this test recorded for `Cc1cc(-c2nnc(-c3cc4ccccc4oc3=O)o2)c(C)n1-c1ccccc1` .
-- reply label 0

-- ask State the result this test recorded for `O=c1cc(O)sc2ccccc12` .
-- reply label 0

* * *

Protocol text: inhibitors of the yeast RAM network, pilot screen, dse1pr::URA3 reporter, 5-FOA selection (AID 869);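 further: 0% = DMSO wells with no growth and 100% = 10 µM 1-NA-PP1 with full growth; RAM network block rescues cells from 5-FOA so hits raise OD615 growth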
Test context: S. cerevisiae dse1pr::URA3 5-FOA growth, OD615, 2 d; at 10 µM; stronger effect = higher value; strain carries analog-sensitive mutant Cbk1 kinase
Heads up, the class ranges for inhibition are low: < 1%; middle: ≥ 1% and < 2%; high: ≥ 2%

Completed entries (count: 6):
[
  {
    "Compound": "CCOc1ccc(N(CC(=O)O)S(=O)(=O)c2ccc(OC)c(OC)c2)cc1",
    "Category label": "middle"
  },
  {
    "Compound": "O=C1C2C3C=CC(C3)C2C(=O)N1CCN1CCN(S(=O)(=O)c2ccc3ccccc3c2)CC1 (stereo unspecified)",
    "Category label": "middle"
  },
  {
    "Compound": "CC1(C)CC(=O)C(C=NC2CCCCC2)=C(O)C1",
    "Category label": "middle"
  },
  {
    "Compound": "CCCCCn1c(N2CCC(Cc3ccccc3)CC2)nc2c1c(=O)[nH]c(=O)n2C",
    "Category label": "middle"
  },
  {
    "Compound": "Cc1ccc2c(c1)c(C)c(C)n2CC(O)Cn1nc(C)cc1C (stereo unspecified)",
    "Category label": "high"
  },
  {
    "Compound": "COc1ccc(NC(=O)c2nc3nc(C)cc(C(F)F)n3n2)cc1OC",
    "Category label": "low"
  }
]

-- ask Please indicate the class for `CSC1=NCCN1C(=O)c1cccs1` based on its inhibition.
-- reply middle

-- ask Please indicate the class for `CCN(CC)c1ccc(/C=N/n2c(C)cc(C)cc2=O)cc1` based on its inhibition.
-- reply low

-- ask Please indicate the class for `CCOc1ccc(-n2c(SCC(N)=O)nc3c(c2=O)SCC3)cc1` based on its inhibition.
-- reply high

* * *

Protocol text: Restrictive medium S. cerevisiae growth inhibition, OD615, pilot screen of yeast lifespan reduction project, restrictive growth control (AID 706);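 further: modified DeaD lifespan yeast strain shifted to restrictive glucose medium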
Test context: OD615, 48 h, at 10 µM, stronger effect = higher value
Metric: growth inhibition (%)
# unit: % | format: bare number

[
  {
    "Compound": "O=C(O)C1C2C=CC3(CN(Cc4ccco4)C(=O)C13)O2 (configuration not stated)",
    "Metric": "growth inhibition",
    "Reading": 4.86
  },
  {
    "Compound": "CCCSC1=C(C#N)C(c2ccc(Cl)cc2Cl)CC(=O)N1 (configuration not stated)",
    "Metric": "growth inhibition",
    "Reading": 24
  },
  {
    "Compound": "O=C(c1cnc2n(c1=O)CCS2)N1CCN(C(c2ccccc2)c2ccc(Cl)cc2)CC1 (configuration not stated)",
    "Metric": "growth inhibition",
    "Reading": -3.16
  },
  {
    "Compound": "COc1ccc(C2C(C(=O)c3cccs3)=C(O)C(=O)N2c2nncs2)cc1 (configuration not stated)",
    "Metric": "growth inhibition",
    "Reading": -14.4
  },
  {
    "Compound": "c1ccc(-n2nnnc2-n2ccnc2)cc1",
    "Metric": "growth inhibition",
    "Reading": 1.55
  }
]

Below: the item to evaluate.
-- ask Entry `c1ccc(N2CCN(c3nnnn3-c3ccccc3)CC2)cc1` has what growth inhibition?
-- reply 3.73

* * *

Protocol text: inhibitors of the yeast RAM network, pilot screen, dse1pr::URA3 reporter, 5-FOA selection (AID 869);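 further: 0% = DMSO wells with no growth and 100% = 10 µM 1-NA-PP1 with full growth; RAM network block rescues cells from 5-FOA so hits raise OD615 growth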
Test context: S. cerevisiae dse1pr::URA3 5-FOA growth, OD615, 2 d; at 10 µM; stronger effect = higher value; strain carries analog-sensitive mutant Cbk1 kinase
Metric: inhibition (%)
# unit: % | format: bare number

-- ask Entry O=C(NCCN1C(=O)C2C3C=CC(C3)C2C1=O)Nc1ccccc1 (stereo unspecified) has what inhibition?
-- reply 0.71

-- ask Entry CCCCN1C(=O)C(O)(CC(=O)c2ccco2)c2cc(Br)ccc21 (stereo unspecified) has what inhibition?
-- reply -0.765

-- ask Entry `Cc1cc(Nc2ncc(Cl)cc2Cl)n(-c2ccccn2)n1` has what inhibition?
-- reply 1.93

-- ask Entry `O=S(=O)(NCCc1csc(-c2cccnc2)n1)c1cccs1` has what inhibition?
-- reply 1.42

-- ask Entry CC(C)CC(NC(=O)c1ccco1)C(=O)Nc1ccc2c(c1)OCCO2 (stereo unspecified) has what inhibition?
-- reply -0.32

-- ask Entry `CCSC1=N/C(=C\c2ccc(C(=O)O)cc2)C(=O)S1` has what inhibition?
-- reply 1.83

* * *

Protocol text: growth suppression of PTEN-deleted HCT116, pilot screen, cell-based, HCT116 clonal line, CellTiter-Glo (AID 824);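 further: 0% = 20 µM Hyamine control and 100% = vehicle cell control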
Test context: 60 h, at 10 µM, stronger effect = lower value
Inconclusive results are not listed.
Metric: viability (%)
# unit: % | format: bare number

See these solved cases before continuing.
[
  {
    "Molecule": "O=C(C1CCC(CNc2c(N3CCCCC3)c(=O)c2=O)CC1)N1CCN(c2ccccn2)CC1 (stereo not given)",
    "viability [%]": 99.1
  },
  {
    "Molecule": "CCOC(=O)C1CCCN(C(=O)N2CCOCC2)C1 (stereo not given)",
    "viability [%]": 99.1
  }
]

-- ask Entry COC(=O)C1=C(N)OC2=C(C(=O)CC(C)(C)C2)C1c1cccnc1 (stereo not given) has what viability?
-- reply 90.4

-- ask Entry `COCCNS(=O)(=O)c1ccc2c(c1)C(=O)c1cc(S(=O)(=O)NCCOC)ccc1-2` has what viability?
-- reply 96.4

-- ask Entry `Oc1[nH]c2ccccc2c1C=Nc1ccc2c(c1)OCO2` has what viability?
-- reply 71.4

* * *

Form field: inhibition (one value per entry).
Protocol text: inhibitors of the yeast RAM network, pilot screen, dse1pr::URA3 reporter, 5-FOA selection (AID 869);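 further: 0% = DMSO wells with no growth and 100% = 10 µM 1-NA-PP1 with full growth; RAM network block rescues cells from 5-FOA so hits raise OD615 growth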
Test context: S. cerevisiae dse1pr::URA3 5-FOA growth, OD615, 2 d; at 10 µM; stronger effect = higher value; strain carries analog-sensitive mutant Cbk1 kinase
# unit: % | format: bare number

[
  {
    "Compound": "COc1ccc(NC2=NCC(=O)N2c2ccccc2)c(OC)c1",
    "inhibition (%)": 1.15
  },
  {
    "Compound": "CCOC(=O)N1CCN(C(=O)c2ccc(CN(c3ccc(C)c(C)c3)S(C)(=O)=O)cc2)CC1",
    "inhibition (%)": 0.115
  },
  {
    "Compound": "O=C1CCC(=O)N1c1ccc(CSc2nc3ccccc3[nH]2)cc1",
    "inhibition (%)": 1.06
  },
  {
    "Compound": "O=C(O)c1ccc(N2C(=O)CC(Cc3ccccc3)C2=O)cc1 (stereo unspecified)",
    "inhibition (%)": -0.025
  },
  {
    "Compound": "c1ccc2c(c1)nc(N1CCOCC1)c1nnnn12",
    "inhibition (%)": 1.38
  },
  {
    "Compound": "CC(=O)N1CCN(c2ccc(NCc3ccc(F)cc3)cc2)CC1",
    "inhibition (%)": 2.81
  },
  {
    "Compound": "O=C(Cn1cnc2c(cnn2-c2ccccc2)c1=O)N1CCOCC1",
    "inhibition (%)": 0.17
  },
  {
    "Compound": "O=C(CCCC(=O)N1CCCc2ccccc21)N1CCCc2ccccc21",
    "inhibition (%)": 2.04
  },
  {
    "Compound": "Cc1ccc(C(=O)NCCNC(=O)CN2CCCC2)cc1",
    "inhibition (%)": 2.21
  },
  {
    "Compound": "Cc1ccc(-c2nn(-c3ccccc3)cc2C(=O)N2CCOCC2)cc1",
    "inhibition (%)": 0.805
  }
]

Below: the item to evaluate.
-- ask Entry `Cc1cc2ccccc2n1CCNC(=O)COc1ccccc1` has what inhibition?
-- reply 2.31
